These entries and their values trace back to ChEMBL document CHEMBL3856280.

molecular target: HSP60/HSP10 (Homo sapiens, UniProt P10809); assay: Inhibition of human mitochondrial HSP60/HSP10 expressed in Escherichia coli DH5alpha/BL21 (DE3) assessed as inhibition of denatured MDH refolding preincubated for 10 mins followed by ATP addition measured after 40 to 60 mins by fluorescence based assay
Sequence (P10809 whole entry): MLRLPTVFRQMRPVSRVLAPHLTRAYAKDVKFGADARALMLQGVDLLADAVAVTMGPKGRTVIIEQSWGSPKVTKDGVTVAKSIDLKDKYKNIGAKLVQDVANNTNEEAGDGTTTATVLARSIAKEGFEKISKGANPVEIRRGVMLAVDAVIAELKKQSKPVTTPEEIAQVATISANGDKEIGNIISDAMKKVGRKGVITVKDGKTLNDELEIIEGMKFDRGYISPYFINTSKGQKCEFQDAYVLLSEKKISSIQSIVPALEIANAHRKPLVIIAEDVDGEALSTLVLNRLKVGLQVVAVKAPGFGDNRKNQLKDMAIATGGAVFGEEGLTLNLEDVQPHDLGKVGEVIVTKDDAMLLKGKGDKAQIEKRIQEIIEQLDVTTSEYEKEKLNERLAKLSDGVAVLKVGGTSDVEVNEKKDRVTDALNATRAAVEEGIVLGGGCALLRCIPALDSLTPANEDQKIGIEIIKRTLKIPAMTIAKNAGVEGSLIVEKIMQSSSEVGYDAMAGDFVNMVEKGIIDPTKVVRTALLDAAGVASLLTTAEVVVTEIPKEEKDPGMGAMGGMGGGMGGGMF
Sequence (P61604 whole entry, further chain): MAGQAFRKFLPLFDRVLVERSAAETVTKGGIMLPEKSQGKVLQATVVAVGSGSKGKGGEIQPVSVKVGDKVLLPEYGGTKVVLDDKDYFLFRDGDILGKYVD
Measurement type: pIC50
Just the number, please; pIC50 means minus log10 of the concentration in mol/L.

// worked examples, pIC50 included
Nc1cccc(S(=O)(=O)Nc2ccc(-c3nc4cc(NS(=O)(=O)c5cccc(N)c5)ccc4o3)cc2)c1 :: 4.06
O=S(=O)(Nc1ccc(-c2nc3cc(NS(=O)(=O)c4cccs4)ccc3o2)cc1)c1cccs1 :: 4.24
O=S(=O)(Nc1ccc(-c2nc3cc(NS(=O)(=O)C(F)(F)F)ccc3o2)cc1)C(F)(F)F :: 4.01

# query: pIC50 of entry COC(=O)c1ccc(S(=O)(=O)Nc2ccc(-c3nc4cc(NS(=O)(=O)c5ccc(C(=O)OC)cc5)ccc4o3)cc2)cc1 4.06

# query: pIC50 of entry Nc1ccc(S(=O)(=O)Nc2ccc(-c3nc4cc(NS(=O)(=O)c5ccc(N)cc5)ccc4o3)cc2)cc1 4.17

###

biological target: E. coli GroEL/ES (Escherichia coli, UniProt P0A6F5); experiment: Inhibition of Escherichia coli GroEL/GroES-ATPase activity expressed in Escherichia coli DH5alpha/BL21 (DE3) assessed as inhibition of denatured MDH refolding preincubated for 10 mins followed by ATP addition measured after 20 to 40 mins by malachite green dye based fluorescence assay
Sequence (P0A6F5 whole entry, looked up): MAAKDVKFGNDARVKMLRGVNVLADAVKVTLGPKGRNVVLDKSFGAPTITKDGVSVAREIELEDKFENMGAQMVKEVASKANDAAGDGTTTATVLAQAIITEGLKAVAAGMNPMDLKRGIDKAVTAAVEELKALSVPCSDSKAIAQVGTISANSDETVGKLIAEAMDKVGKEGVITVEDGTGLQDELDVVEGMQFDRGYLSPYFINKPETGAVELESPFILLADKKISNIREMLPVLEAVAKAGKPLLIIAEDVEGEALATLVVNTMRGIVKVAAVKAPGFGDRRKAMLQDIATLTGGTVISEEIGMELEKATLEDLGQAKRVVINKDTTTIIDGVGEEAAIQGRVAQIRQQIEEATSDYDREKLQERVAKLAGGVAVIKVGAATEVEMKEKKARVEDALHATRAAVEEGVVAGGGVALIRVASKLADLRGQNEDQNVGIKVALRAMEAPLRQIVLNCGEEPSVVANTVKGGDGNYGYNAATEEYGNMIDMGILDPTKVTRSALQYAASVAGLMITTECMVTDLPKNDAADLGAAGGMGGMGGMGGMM
Measurement type: pIC50
Just the number, please; pIC50 means minus log10 of the concentration in mol/L.

// worked examples, pIC50 included
O=S(=O)(Nc1ccc(-c2nc3cc(NS(=O)(=O)c4ccc(Br)cc4)ccc3o2)cc1)c1ccc(Br)cc1 :: 4.72
COC(=O)c1ccc(S(=O)(=O)Nc2ccc(-c3nc4cc(NS(=O)(=O)c5ccc(C(=O)OC)cc5)ccc4o3)cc2)cc1 :: 4.04

For the next question, use this molecule.
# query: pIC50 of entry O=S(=O)(Nc1ccc(-c2nc3cc(NS(=O)(=O)c4ccccc4O)ccc3o2)cc1)c1ccccc1O 4.44

###

target: E. coli GroEL/ES (Escherichia coli, UniProt P0A6F5); assay: Inhibition of Escherichia coli GroEL/GroES expressed in Escherichia coli DH5alpha/BL21 (DE3) assessed as inhibition of denatured MDH refolding preincubated for 10 mins followed by ATP addition measured after 20 to 40 mins by fluorescence based assay
Let's look at some compounds and their measured IC50.
Supply the numeric figure in µM, leaving out any unit text.

// worked examples, IC50 included
O=S(=O)(Nc1ccc(-c2nc3cc(NS(=O)(=O)c4ccc5nsnc5c4)ccc3o2)cc1)c1ccc2nsnc2c1 :: 3.7
N#Cc1cccc(S(=O)(=O)Nc2ccc(-c3nc4cc(NS(=O)(=O)c5cccc(C#N)c5)ccc4o3)cc2)c1 :: 7.6
Nc1ccc(S(=O)(=O)Nc2ccc(-c3nc4cc(NS(=O)(=O)c5ccc(N)cc5)ccc4o3)cc2)cc1 :: 1.4
COC(=O)c1ccc(S(=O)(=O)Nc2ccc(-c3nc4cc(NS(=O)(=O)c5ccc(C(=O)OC)cc5)ccc4o3)cc2)cc1 :: 26
O=S(=O)(Nc1ccc(-c2nc3cc(NS(=O)(=O)c4cccc(C(F)(F)F)c4)ccc3o2)cc1)c1cccc(C(F)(F)F)c1 :: 15
O=S(=O)(Nc1ccc(-c2nc3cc(NS(=O)(=O)c4cccc5nonc45)ccc3o2)cc1)c1cccc2nonc12 :: 32
O=S(=O)(Cc1ccccc1)Nc1ccc(-c2nc3cc(NS(=O)(=O)Cc4ccccc4)ccc3o2)cc1 :: 55
O=S(=O)(Nc1ccc(-c2nc3cc(NS(=O)(=O)c4ccc(O)cc4)ccc3o2)cc1)c1ccc(O)cc1 :: 0.34
O=S(=O)(Nc1ccc(-c2nc3cc(NS(=O)(=O)c4ccccc4F)ccc3o2)cc1)c1ccccc1F :: 22
COc1cccc(S(=O)(=O)Nc2ccc(-c3nc4cc(NS(=O)(=O)c5cccc(OC)c5)ccc4o3)cc2)c1 :: 48

# query: IC50 of entry COC(=O)c1ccccc1S(=O)(=O)Nc1ccc(-c2nc3cc(NS(=O)(=O)c4ccccc4C(=O)OC)ccc3o2)cc1 36

# query: IC50 of entry Cc1cccc(S(=O)(=O)Nc2ccc(-c3nc4cc(NS(=O)(=O)c5cccc(C)c5)ccc4o3)cc2)c1 35

# query: IC50 of entry O=C(O)c1cccc(S(=O)(=O)Nc2ccc(-c3nc4cc(NS(=O)(=O)c5cccc(C(=O)O)c5)ccc4o3)cc2)c1 61

# query: IC50 of entry O=[N+]([O-])c1ccc(S(=O)(=O)Nc2ccc(-c3nc4cc(NS(=O)(=O)c5ccc([N+](=O)[O-])cc5)ccc4o3)cc2)cc1 26

# query: IC50 of entry O=C(O)c1ccc(S(=O)(=O)Nc2ccc(-c3nc4cc(NS(=O)(=O)c5ccc(C(=O)O)cc5)ccc4o3)cc2)cc1 83

# query: IC50 of entry O=S(=O)(Nc1ccc(-c2nc3cc(NS(=O)(=O)c4cccc(O)c4)ccc3o2)cc1)c1cccc(O)c1 0.9
